Test system: CXCR4 tropic (CMU06) strain of HIV-1
MEASUREMENT_NOTES: HIV-1 infection and replication in PBMCs, RT activity
Type: cell-based
ASSAY_CONTEXT: seven days, CXCR4 virus
pIC50: −log10 of the molar value.
PROPERTY_MEASURED: pIC50

| CPD_SMILES | ENDPOINT_RESULT |
| --- | --- |
| Cc1cn([C@H]2C[C@H](N=[N+]=[N-])[C@@H](CO)O2)c(=O)[nH]c1=O | > 10.00 |

* * *

System: HIV-1BaL
MEASUREMENT_NOTES: Virus attachment assay
Type: cell-based
ASSAY_CONTEXT: Human immunodeficiency virus 1; Assay Virus HIV-1BaL

| CPD_SMILES | TESTED_ON | IC50, µM |
| --- | --- | --- |
| c1cc(CN2CCCNCCNCCCNCC2)ccc1CN1CCCNCCNCCCNCC1 | HIV-1BaL | 3.79 |
